Cited source for all entries: patent US20250206732A1

Biological target: AsPC-1 HiBiT-KRASG12D (Homo sapiens, UniProt P01116, G12D)
Construct: insert the HiBiT tag onto the N-terminus of one or more of the endogenous KRAS alleles; endogenous in cells; host or cells: AsPC-1 (ATCC CRL-1682), CRISPR-Cas9 knock-in clone, one tagged allele
Sequence (P01116 1-188 isoform P01116-2 G12D): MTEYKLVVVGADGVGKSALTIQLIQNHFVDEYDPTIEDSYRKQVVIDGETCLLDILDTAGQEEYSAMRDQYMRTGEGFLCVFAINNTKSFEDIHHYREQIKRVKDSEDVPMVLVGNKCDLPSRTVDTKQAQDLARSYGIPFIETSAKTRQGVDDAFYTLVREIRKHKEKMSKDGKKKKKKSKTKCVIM
Test: HiBiT degradation assay (G12D), AsPC-1 HiBiT-KRASG12D cells
Assay type: cell-based
Settings: ASPC1, AsPC-1 HiBiT-KRASG12D cells, 24 hours treatment, maximum degradation observed
Consider the following compounds; for each one, report its Dmax.

Inquiry: Provide one value: measured Dmax of CCc1cccc2cc(O)cc(-c3ncc4c(N5CC6CCC(C5)N6)nc(OC[C@]56CCCN5[C@@H](COc5cc(C(C(=O)N7C[C@H](O)C[C@H]7C(=O)N[C@@H](C)c7ccc(-c8scnc8C)cc7)C(C)C)on5)CC6)nc4c3F)c12 (some centres unmarked)
Reply text: 80 to 100%

Inquiry: Provide one value: measured Dmax of Cc1ncsc1-c1ccc([C@H](C)NC(=O)[C@@H]2C[C@@H](O)CN2C(=O)[C@@H](c2cc(N3CCN(C(=O)OC[C@@H]4CC[C@@]5(COc6nc(N7CC8CCC(C7)N8)c7cnc(-c8cc(O)cc(Cl)c8C(F)(F)F)c(F)c7n6)CCCN45)CC3)no2)C(C)C)cc1 (relative stereo)
Reply text: 80 to 100%

Inquiry: Provide one value: measured Dmax of `CCc1cccc2cc(O)cc(-c3ncc4c(N5CCCCCC5)nc(OC[C@]56CCCN5[C@@H](COC(=O)N5CCN(c7cc([C@H](C(=O)N8C[C@H](O)C[C@H]8C(=O)N[C@@H](C)c8ccc(-c9scnc9C)cc8)C(C)C)on7)CC5)CC6)nc4c3F)c12`
Reply text: 80 to 100%

Inquiry: Provide one value: measured Dmax of `CCc1cccc2cc(O)cc(-c3ncc4c(N5CCCCCC5)nc(OC[C@@]56CCCN5[C@H](COC(=O)N5CCN(c7cc([C@@H](C(=O)N8C[C@H](O)C[C@H]8C(=O)N[C@@H](C)c8ccc(-c9scnc9C)cc8)C(C)C)on7)CC5)CC6)nc4c3F)c12`
Reply text: < 20%

Inquiry: Provide one value: measured Dmax of `C#Cc1c(F)ccc2cc(O)cc(-c3ncc4c(N5CC6CCC(C5)N6)nc(OCCN5CCC(CC6CN(c7cc([C@@H](C(=O)N8C[C@H](O)C[C@H]8C(=O)N[C@@H](C)c8ccc(-c9ccnn9C)cc8)C(C)C)on7)C6)CC5)nc4c3F)c12`
Reply text: 20 to 60%

Inquiry: Provide one value: measured Dmax of `CCc1cccc2cc(O)cc(-c3ncc4c(N5CC6CCC(C5)N6)nc(OC[C@]56CCCN5C[C@H](Oc5cc([C@H](C(=O)N7C[C@H](O)C[C@H]7C(=O)N[C@@H](C)c7ccc(-c8scnc8C)cc7)C(C)C)on5)CC6)nc4c3F)c12`
Reply text: 20 to 60%

Inquiry: Provide one value: measured Dmax of `CCc1cccc2cc(O)cc(-c3ncc4c(N5CCCCCC5)nc(OC[C@]56CCCN5[C@H](COC(=O)N5CCN(c7cc([C@H](C(=O)N8C[C@H](O)C[C@H]8C(=O)N[C@@H](C)c8ccc(-c9scnc9C)cc8)C(C)C)on7)[C@H](C)C5)CC6)nc4c3F)c12`
Reply text: 80 to 100%

Inquiry: Provide one value: measured Dmax of CCc1cccc2cc(O)cc(-c3ncc4c(N5CC6CCC(C5)N6)nc(OCCN5CCC(N(C)c6cc([C@@H](C(=O)N7C[C@H](O)C[C@H]7C(=O)N[C@@H](C)c7ccc(-c8scnc8C)cc7)C(C)C)on6)CC5)nc4c3F)c12 (relative stereo)
Reply text: 20 to 60%
